TEST TARGET: α4β1 integrin (Homo sapiens (Human), UniProt P05556+P13612)
Sequence (P13612 34-1032): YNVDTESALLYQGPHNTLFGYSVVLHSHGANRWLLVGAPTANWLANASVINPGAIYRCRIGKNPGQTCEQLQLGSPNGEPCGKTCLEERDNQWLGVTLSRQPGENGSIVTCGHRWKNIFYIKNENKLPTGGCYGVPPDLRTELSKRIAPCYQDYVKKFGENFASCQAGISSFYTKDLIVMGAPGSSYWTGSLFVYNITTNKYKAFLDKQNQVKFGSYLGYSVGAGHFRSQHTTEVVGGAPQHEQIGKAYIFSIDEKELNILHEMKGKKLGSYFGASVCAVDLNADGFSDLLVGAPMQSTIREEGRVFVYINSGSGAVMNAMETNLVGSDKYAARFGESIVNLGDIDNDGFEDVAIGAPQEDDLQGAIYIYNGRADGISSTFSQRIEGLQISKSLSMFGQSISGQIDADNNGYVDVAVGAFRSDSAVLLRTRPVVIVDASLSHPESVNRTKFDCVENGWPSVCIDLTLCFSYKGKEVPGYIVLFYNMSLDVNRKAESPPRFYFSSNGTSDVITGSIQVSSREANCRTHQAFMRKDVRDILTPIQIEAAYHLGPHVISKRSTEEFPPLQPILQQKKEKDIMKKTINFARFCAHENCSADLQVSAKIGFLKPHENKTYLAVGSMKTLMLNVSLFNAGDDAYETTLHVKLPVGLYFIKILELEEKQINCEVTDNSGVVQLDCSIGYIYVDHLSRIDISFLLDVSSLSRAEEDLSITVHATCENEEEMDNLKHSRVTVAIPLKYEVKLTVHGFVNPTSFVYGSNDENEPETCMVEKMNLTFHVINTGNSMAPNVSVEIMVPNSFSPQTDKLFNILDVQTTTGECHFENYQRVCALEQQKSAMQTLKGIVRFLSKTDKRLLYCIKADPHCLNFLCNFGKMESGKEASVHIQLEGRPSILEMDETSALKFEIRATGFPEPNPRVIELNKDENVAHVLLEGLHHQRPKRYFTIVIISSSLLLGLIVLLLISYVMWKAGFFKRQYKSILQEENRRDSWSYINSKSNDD
Sequence (P05556 21-798): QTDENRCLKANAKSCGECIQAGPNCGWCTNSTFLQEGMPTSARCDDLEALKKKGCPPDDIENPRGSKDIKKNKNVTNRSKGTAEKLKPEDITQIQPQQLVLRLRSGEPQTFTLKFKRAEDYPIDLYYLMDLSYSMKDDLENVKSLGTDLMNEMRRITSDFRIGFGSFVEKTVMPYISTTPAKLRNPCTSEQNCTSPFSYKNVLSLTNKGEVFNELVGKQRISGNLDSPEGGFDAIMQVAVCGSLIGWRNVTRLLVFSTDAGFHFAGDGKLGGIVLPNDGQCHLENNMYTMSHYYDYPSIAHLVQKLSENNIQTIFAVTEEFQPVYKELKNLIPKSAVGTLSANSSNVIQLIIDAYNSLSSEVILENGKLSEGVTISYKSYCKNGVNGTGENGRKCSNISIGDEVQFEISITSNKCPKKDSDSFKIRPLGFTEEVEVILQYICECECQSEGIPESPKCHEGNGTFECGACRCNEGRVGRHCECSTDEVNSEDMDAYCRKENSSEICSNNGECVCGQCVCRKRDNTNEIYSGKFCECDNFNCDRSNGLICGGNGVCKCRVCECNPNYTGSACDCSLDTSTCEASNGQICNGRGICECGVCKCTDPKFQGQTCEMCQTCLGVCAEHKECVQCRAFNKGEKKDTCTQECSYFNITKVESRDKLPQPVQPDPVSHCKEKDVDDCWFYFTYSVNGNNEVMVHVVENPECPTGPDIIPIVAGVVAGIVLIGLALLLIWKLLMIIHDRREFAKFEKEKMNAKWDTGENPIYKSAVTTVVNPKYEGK
TEST: Integrin Adhesion Assay: Protocol 5 (VCAM-coated plate, RPMI-8866 cells with stable LOF mutation of the ITGB7 gene)
Type: cell-based
EXPERIMENTAL CONDITIONS: Protocol 5; RPMI-8866 cells with LOF mutation of ITGB7, VCAM; read-out: Mean IC50 α4β1 KO
pIC50: −log10 of the molar value.
TEST READOUT: pIC50

Solved entries (count: 10):
| MOLECULE | pIC50 |
| --- | --- |
| COc1cccc(CN2CCC(C(C)(C)C)CC2)c1-c1cccc2c(C[C@H](NC(=O)c3c(C)cccc3F)C(=O)O)cccc12 | 6.00 to 7.00 |
| Cc1cccc(F)c1C(=O)N[C@@H](Cc1cccc2c(-c3cc(CN4CCCCC4)ccn3)cccc12)C(=O)O | < 6.00 |
| Cc1cccc(F)c1C(=O)N[C@@H](Cc1cccc2c(-c3ncccc3CN3CCCCC3)cccc12)C(=O)O | < 6.00 |
| COc1ccc(CN2CCC(C)(C)CC2)c(OC)c1-c1cccc2c(C[C@H](NC(=O)C3(C(F)(F)F)CCN(CC(F)(F)F)CC3)C(=O)O)cccc12 | 6.00 to 7.00 |
| CC1CCN(Cc2ccc3c(c2)c(C(F)(F)F)c(-c2cccc4c(C[C@H](NC(=O)C5(C(F)(F)F)CCN(CC(F)F)CC5)C(=O)O)cccc24)c(=O)n3C)CCC1(F)F (stereo partly drawn) | 7.00 to 8.00 |
| O=C(O)[C@H](Cc1cccc2c(-c3ccccc3OCCN3CCCCC3)cccc12)NC(=O)C1(C(F)(F)F)CCN(CC(F)(F)F)CC1 | < 6.00 |
| O=C(O)[C@H](Cc1cccc2c(-c3ncc(CCN4CCC(F)(F)CC4)c4ccccc34)cccc12)NC(=O)C1(C(F)(F)F)CCN(CC(F)(F)F)CC1 | < 6.00 |
| COc1ccc(CN2CCC(C)(C)CC2)cc1-c1cccc2c(C[C@H](NC(=O)C3(C(F)(F)F)CCN(CC(F)F)CC3)C(=O)O)cccc12 | 6.00 to 7.00 |
| Cc1cc(C(F)(F)F)cc(F)c1C(=O)N[C@@H](Cc1cccc2c(-c3c(C(F)(F)F)c4cc(CN(C)C)ccc4n(C)c3=O)cccc12)C(=O)O | < 6.00 |
| O=C(O)[C@H](Cc1cccc2c(-c3cccc4c3OCCO4)cccc12)NC(=O)C1(C(F)(F)F)CCN(CC(F)(F)F)CC1 | < 6.00 |

response.value for O=C(O)[C@H](Cc1cccc2c(-c3ncc(CN4CCCCC4)c4ccccc34)cccc12)NC(=O)C1(C(F)(F)F)CCN(CC(F)(F)F)CC1 (field: pIC50) = < 6.00

Item: COc1ccc(CN2CCC(F)CC2)cc1-c1cccc2c(C[C@H](NC(=O)C3(C(F)(F)F)CCN(CC(F)F)CC3)C(=O)O)cccc12 | pIC50: 6.00 to 7.00
